All figures here come from patent US8840891.

- target: T1, TSHR coated onto tubes (human, UniProt P16473 21-764, limits assumed)
- T1 construct: whole entry named; also called TSHR coated tubes; thyrotropin receptor
- assay-name: TSHR coated tubes, competitor 125I-TSH
List of % inhib of 125I-TSH binding at 1 µg/mL values.
Provide the reading as a plain figure in %.

Sure, the documented % inhib of 125I-TSH binding at 1 µg/mL for 16E5 IgG (antibody, V domains shown) VH: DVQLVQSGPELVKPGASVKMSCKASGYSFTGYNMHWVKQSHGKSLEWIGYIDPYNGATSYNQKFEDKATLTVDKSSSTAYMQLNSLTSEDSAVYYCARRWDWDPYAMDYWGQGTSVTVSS VL: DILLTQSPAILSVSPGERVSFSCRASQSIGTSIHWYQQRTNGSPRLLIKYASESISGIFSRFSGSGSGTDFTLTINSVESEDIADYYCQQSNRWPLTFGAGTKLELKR is 39

GET /value?item= 2B4 IgG (antibody, V domains shown) VH: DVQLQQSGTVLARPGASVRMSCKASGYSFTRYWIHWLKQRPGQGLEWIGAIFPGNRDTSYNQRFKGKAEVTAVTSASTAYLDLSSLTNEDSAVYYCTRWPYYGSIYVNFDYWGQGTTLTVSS VL: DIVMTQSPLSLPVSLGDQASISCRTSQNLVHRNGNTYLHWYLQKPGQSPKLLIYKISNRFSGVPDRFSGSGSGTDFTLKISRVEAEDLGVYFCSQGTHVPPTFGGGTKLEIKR &field=% inhib of 125I-TSH binding at 1 µg/mL returns 82
